pKi: −log10 of the molar value.
The reader will find pKi measurements below, all made with Collagenase 3 (Homo sapiens).
PROPERTY_MEASURED: pKi

[[record]]
chemical_structure = "Cc1cc(COc2ccc(C3(N4CCN(CCc5ccccc5)CC4)C(=O)NC(=O)NC3=O)cc2)c2ccccc2n1"
assay_target = "Collagenase 3 (Homo sapiens)"
property_measured = "pKi"
observed_result = 7.02

[[record]]
chemical_structure = "Cc1cc(COc2ccc(C3(C)C(=O)NC(=O)NC3=O)cc2)c2ccccc2n1"
assay_target = "Collagenase 3 (Homo sapiens)"
property_measured = "pKi"
observed_result = 5.30

[[record]]
chemical_structure = "Cc1cc(COc2ccc(C3(N4CCN(C(=O)C(C)(C)C)CC4)C(=O)NC(=O)NC3=O)cc2)c2ccccc2n1"
assay_target = "Collagenase 3 (Homo sapiens)"
property_measured = "pKi"
observed_result = "< 5.30"

[[record]]
chemical_structure = "Cc1cc(COc2ccc(C3(N4CCN(Cc5ccccc5)CC4)C(=O)NC(=O)NC3=O)cc2)c2ccccc2n1"
assay_target = "Collagenase 3 (Homo sapiens)"
property_measured = "pKi"
observed_result = "< 5.30"

[[record]]
chemical_structure = "Cc1cc(COc2ccc(C3(N4CCN(CCCc5ccccc5)CC4)C(=O)NC(=O)NC3=O)cc2)c2ccccc2n1"
assay_target = "Collagenase 3 (Homo sapiens)"
property_measured = "pKi"
observed_result = 5.30

[[record]]
chemical_structure = "Cc1cc(COc2ccc(C3(N4CCOCC4)C(=O)NC(=O)NC3=O)cc2)c2ccccc2n1"
assay_target = "Collagenase 3 (Homo sapiens)"
property_measured = "pKi"
observed_result = "< 5.30"

[[record]]
chemical_structure = "CC1(c2ccc(O)cc2)C(=O)NC(=O)NC1=O"
assay_target = "Collagenase 3 (Homo sapiens)"
property_measured = "pKi"
observed_result = "< 5.30"

[[record]]
chemical_structure = "Cc1cc(COc2ccc(C3(N4CCNCC4)C(=O)NC(=O)NC3=O)cc2)c2ccccc2n1"
assay_target = "Collagenase 3 (Homo sapiens)"
property_measured = "pKi"
observed_result = "< 5.30"

[[record]]
chemical_structure = "Cc1cc(COc2ccc(C3(N4CCN(S(C)(=O)=O)CC4)C(=O)NC(=O)NC3=O)cc2)c2ccccc2n1"
assay_target = "Collagenase 3 (Homo sapiens)"
property_measured = "pKi"
observed_result = "< 5.30"


====

ASSAY_TARGET: Disintegrin and metalloproteinase domain-containing protein 17 (Homo sapiens, UniProt P78536)
Sequence (P78536 whole entry, the tested form may be a part): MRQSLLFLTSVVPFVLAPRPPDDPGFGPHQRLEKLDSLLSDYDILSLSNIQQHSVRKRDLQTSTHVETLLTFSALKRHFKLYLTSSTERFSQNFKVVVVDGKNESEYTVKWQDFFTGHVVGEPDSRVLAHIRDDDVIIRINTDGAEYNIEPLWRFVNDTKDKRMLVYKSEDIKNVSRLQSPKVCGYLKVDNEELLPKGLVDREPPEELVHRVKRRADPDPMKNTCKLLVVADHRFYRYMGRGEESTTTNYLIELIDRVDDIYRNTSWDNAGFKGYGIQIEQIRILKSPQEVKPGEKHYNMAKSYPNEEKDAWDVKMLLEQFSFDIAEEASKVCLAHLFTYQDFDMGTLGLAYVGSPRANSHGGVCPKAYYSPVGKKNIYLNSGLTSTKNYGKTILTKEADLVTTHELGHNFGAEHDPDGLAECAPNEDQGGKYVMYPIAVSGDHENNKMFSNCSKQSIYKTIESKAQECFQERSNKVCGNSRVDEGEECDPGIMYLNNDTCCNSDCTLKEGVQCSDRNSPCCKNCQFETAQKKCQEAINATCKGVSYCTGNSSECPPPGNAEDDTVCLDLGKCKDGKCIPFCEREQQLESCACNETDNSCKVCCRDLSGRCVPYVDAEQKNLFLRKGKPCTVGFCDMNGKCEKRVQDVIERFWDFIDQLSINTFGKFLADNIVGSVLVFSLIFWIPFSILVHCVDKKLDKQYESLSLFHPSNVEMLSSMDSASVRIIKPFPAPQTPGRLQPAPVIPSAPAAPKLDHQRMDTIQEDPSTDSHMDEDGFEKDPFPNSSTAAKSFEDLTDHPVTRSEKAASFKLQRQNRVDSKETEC
pIC50: −log10 of the molar value.
Reported pIC50 values for a set of molecules
PROPERTY_MEASURED: pIC50

[[record]]
chemical_structure = "Cc1cc(COc2ccc(C3(N4CCN(C(=O)OC(C)(C)C)CC4)C(=O)NC(=O)NC3=O)cc2)c2ccccc2n1"
property_measured = "pIC50"
comparison_symbol = "="
observed_result = 6.80

[[record]]
chemical_structure = "Cc1cc(COc2ccc(C3(N4CCCCC4)C(=O)NC(=O)NC3=O)cc2)c2ccccc2n1"
property_measured = "pIC50"
comparison_symbol = "="
observed_result = 6.07

[[record]]
chemical_structure = "Cc1cc(COc2ccc(C3(N4CCN(CC(C)(C)C)CC4)C(=O)NC(=O)NC3=O)cc2)c2ccccc2n1"
property_measured = "pIC50"
comparison_symbol = "="
observed_result = 6.80

[[record]]
chemical_structure = "Cc1cc(COc2ccc(C3(N4CCN(CCc5ccccc5)CC4)C(=O)NC(=O)NC3=O)cc2)c2ccccc2n1"
property_measured = "pIC50"
comparison_symbol = "="
observed_result = 7.08

[[record]]
chemical_structure = "Cc1cc(COc2ccc(C3(N4CCN(C)CC4)C(=O)NC(=O)NC3=O)cc2)c2ccccc2n1"
property_measured = "pIC50"
comparison_symbol = "="
observed_result = 7.04

[[record]]
chemical_structure = "Cc1cc(COc2ccc(C3(N4CCN(C(C)C)CC4)C(=O)NC(=O)NC3=O)cc2)c2ccccc2n1"
property_measured = "pIC50"
comparison_symbol = "="
observed_result = 7.02

[[record]]
chemical_structure = "Cc1cc(COc2ccc(C3(N4CCN(CCCc5ccccc5)CC4)C(=O)NC(=O)NC3=O)cc2)c2ccccc2n1"
property_measured = "pIC50"
comparison_symbol = "="
observed_result = 6.96

[[record]]
chemical_structure = "Cc1cc(COc2ccc3cc(C4(C)C(=O)NC(=O)NC4=O)ccc3c2)c2ccccc2n1"
property_measured = "pIC50"
comparison_symbol = "<"
observed_result = 4.00


====

pKi: −log10 of the molar value.
Observed pKi values for 72 kDa type IV collagenase (Homo sapiens) are listed in what follows.
PROPERTY_MEASURED: pKi

[[record]]
chemical_structure = "Cc1cc(COc2ccc(C3(N4CCCCC4)C(=O)NC(=O)NC3=O)cc2)c2ccccc2n1"
property_measured = "pKi"
observed_result = "< 5.48"

[[record]]
chemical_structure = "CC1(c2ccc(OCc3ccccc3)cc2)C(=O)NC(=O)NC1=O"
property_measured = "pKi"
observed_result = 6.22

[[record]]
chemical_structure = "Cc1cc(COc2ccc3cc(C4(C)C(=O)NC(=O)NC4=O)ccc3c2)c2ccccc2n1"
property_measured = "pKi"
observed_result = 5.48

[[record]]
chemical_structure = "Cc1cc(COc2ccc(C3(N4CCN(CC(C)(C)C)CC4)C(=O)NC(=O)NC3=O)cc2)c2ccccc2n1"
property_measured = "pKi"
observed_result = "< 5.48"

[[record]]
chemical_structure = "CC1(c2ccc(O)cc2)C(=O)NC(=O)NC1=O"
property_measured = "pKi"
observed_result = 5.60

[[record]]
chemical_structure = "Cc1cc(COc2ccc(C3(N4CCN(C(=O)C(C)(C)C)CC4)C(=O)NC(=O)NC3=O)cc2)c2ccccc2n1"
property_measured = "pKi"
observed_result = "< 5.48"

[[record]]
chemical_structure = "Cc1cc(COc2ccc(C3(N4CCN(c5ccc([N+](=O)[O-])cc5)CC4)C(=O)NC(=O)NC3=O)cc2)c2ccccc2n1"
property_measured = "pKi"
observed_result = 6.94

[[record]]
chemical_structure = "Cc1cc(COc2ccc(C3(N4CCN(S(C)(=O)=O)CC4)C(=O)NC(=O)NC3=O)cc2)c2ccccc2n1"
property_measured = "pKi"
observed_result = "< 5.48"

[[record]]
chemical_structure = "CCCCCCN1CCN(C2(c3ccc(OCc4cc(C)nc5ccccc45)cc3)C(=O)NC(=O)NC2=O)CC1"
property_measured = "pKi"
observed_result = "< 5.48"

[[record]]
chemical_structure = "Cc1cc(COc2ccc(C3(N4CCNCC4)C(=O)NC(=O)NC3=O)cc2)c2ccccc2n1"
property_measured = "pKi"
observed_result = "< 5.48"

[[record]]
chemical_structure = "CC1(c2ccc(Oc3ccccc3)cc2)C(=O)NC(=O)NC1=O"
property_measured = "pKi"
observed_result = 7.10

[[record]]
chemical_structure = "CC(=O)c1ccc(N2CCN(C3(c4ccc(OCc5cc(C)nc6ccccc56)cc4)C(=O)NC(=O)NC3=O)CC2)cc1"
property_measured = "pKi"
observed_result = "< 5.48"

[[record]]
chemical_structure = "Cc1cc(COc2ccc(C3(N4CCN(C(=O)OC(C)(C)C)CC4)C(=O)NC(=O)NC3=O)cc2)c2ccccc2n1"
property_measured = "pKi"
observed_result = "< 5.48"

[[record]]
chemical_structure = "Cc1cc(COc2ccc(C3(C)C(=O)NC(=O)NC3=O)cc2)c2ccccc2n1"
property_measured = "pKi"
observed_result = "< 5.48"

[[record]]
chemical_structure = "Cc1cc(COc2ccc(C3(N4CCN(C)CC4)C(=O)NC(=O)NC3=O)cc2)c2ccccc2n1"
property_measured = "pKi"
observed_result = "< 5.48"

[[record]]
chemical_structure = "Cc1cc(COc2ccc(C3(N4CCN(C(C)C)CC4)C(=O)NC(=O)NC3=O)cc2)c2ccccc2n1"
property_measured = "pKi"
observed_result = "< 5.48"

[[record]]
chemical_structure = "Cc1cc(COc2ccc(C3(N4CCN(CCc5ccccc5)CC4)C(=O)NC(=O)NC3=O)cc2)c2ccccc2n1"
property_measured = "pKi"
observed_result = 7.08

[[record]]
chemical_structure = "Cc1cc(COc2ccc(C3(N4CCN(Cc5ccccc5)CC4)C(=O)NC(=O)NC3=O)cc2)c2ccccc2n1"
property_measured = "pKi"
observed_result = "< 5.48"

[[record]]
chemical_structure = "Cc1cc(COc2ccc(C3(N4CCOCC4)C(=O)NC(=O)NC3=O)cc2)c2ccccc2n1"
property_measured = "pKi"
observed_result = "< 5.48"

[[record]]
chemical_structure = "Cc1cc(COc2ccc(C3(N4CCN(CCCc5ccccc5)CC4)C(=O)NC(=O)NC3=O)cc2)c2ccccc2n1"
property_measured = "pKi"
observed_result = 5.51


====

ASSAY_TARGET: Collagenase 3 (Homo sapiens)
pKi: −log10 of the molar value.
PROPERTY_MEASURED: pKi

[[record]]
chemical_structure = "Cc1cc(COc2ccc(C3(N4CCN(C(C)C)CC4)C(=O)NC(=O)NC3=O)cc2)c2ccccc2n1"
assay_target = "Collagenase 3 (Homo sapiens)"
property_measured = "pKi"
observed_result = "< 5.30"

[[record]]
chemical_structure = "CC1(c2ccc(OCc3ccccc3)cc2)C(=O)NC(=O)NC1=O"
assay_target = "Collagenase 3 (Homo sapiens)"
property_measured = "pKi"
observed_result = 5.40

[[record]]
chemical_structure = "CC1(c2ccc(Oc3ccccc3)cc2)C(=O)NC(=O)NC1=O"
assay_target = "Collagenase 3 (Homo sapiens)"
property_measured = "pKi"
observed_result = 7.19

[[record]]
chemical_structure = "Cc1cc(COc2ccc(C3(N4CCCCC4)C(=O)NC(=O)NC3=O)cc2)c2ccccc2n1"
assay_target = "Collagenase 3 (Homo sapiens)"
property_measured = "pKi"
observed_result = "< 5.30"

[[record]]
chemical_structure = "Cc1cc(COc2ccc(C3(N4CCN(C(=O)OC(C)(C)C)CC4)C(=O)NC(=O)NC3=O)cc2)c2ccccc2n1"
assay_target = "Collagenase 3 (Homo sapiens)"
property_measured = "pKi"
observed_result = "< 5.30"

[[record]]
chemical_structure = "Cc1cc(COc2ccc(C3(N4CCN(c5ccc([N+](=O)[O-])cc5)CC4)C(=O)NC(=O)NC3=O)cc2)c2ccccc2n1"
assay_target = "Collagenase 3 (Homo sapiens)"
property_measured = "pKi"
observed_result = 6.45

[[record]]
chemical_structure = "CCCCCCN1CCN(C2(c3ccc(OCc4cc(C)nc5ccccc45)cc3)C(=O)NC(=O)NC2=O)CC1"
assay_target = "Collagenase 3 (Homo sapiens)"
property_measured = "pKi"
observed_result = "< 5.30"

[[record]]
chemical_structure = "Cc1cc(COc2ccc(C3(N4CCN(CC(C)(C)C)CC4)C(=O)NC(=O)NC3=O)cc2)c2ccccc2n1"
assay_target = "Collagenase 3 (Homo sapiens)"
property_measured = "pKi"
observed_result = "< 5.30"

[[record]]
chemical_structure = "CC(=O)c1ccc(N2CCN(C3(c4ccc(OCc5cc(C)nc6ccccc56)cc4)C(=O)NC(=O)NC3=O)CC2)cc1"
assay_target = "Collagenase 3 (Homo sapiens)"
property_measured = "pKi"
observed_result = "< 5.30"

[[record]]
chemical_structure = "Cc1cc(COc2ccc(C3(N4CCN(C)CC4)C(=O)NC(=O)NC3=O)cc2)c2ccccc2n1"
assay_target = "Collagenase 3 (Homo sapiens)"
property_measured = "pKi"
observed_result = "< 5.30"

